- TESTED_ON: human CMKLR1 (Homo sapiens)
- Sequence (Q99788 whole entry): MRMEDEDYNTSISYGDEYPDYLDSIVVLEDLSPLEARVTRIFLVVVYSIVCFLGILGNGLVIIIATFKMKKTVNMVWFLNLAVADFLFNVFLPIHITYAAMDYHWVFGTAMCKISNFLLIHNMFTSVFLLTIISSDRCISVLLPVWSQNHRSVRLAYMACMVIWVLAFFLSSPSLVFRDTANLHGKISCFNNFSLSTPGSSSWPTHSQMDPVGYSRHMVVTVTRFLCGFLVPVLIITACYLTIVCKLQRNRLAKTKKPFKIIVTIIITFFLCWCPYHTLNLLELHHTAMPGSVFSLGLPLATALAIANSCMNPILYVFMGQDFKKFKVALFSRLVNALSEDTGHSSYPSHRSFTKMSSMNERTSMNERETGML
- ASSAY_NOTES: Radioligand binding assay, huCMKLR1/HEK293
Ends that are not written are not given here.
MEASURED_ENDPOINT: IC50 (nM)
Give bare numbers, in nM.

| SEQ_STRING | IC50, nM |
| --- | --- |
| VQRAGEDPHSFYFPGQFAFS [huC-20] | 1.6 |

Read the next record carefully.
Q: Item IAQAGEDPHGYFLPGQFAFS [mC-20] : provide IC50
Ans: 2.5

###

- TESTED_ON: human GPR1 (Homo sapiens, UniProt P46091)
- Sequence (P46091 1-355): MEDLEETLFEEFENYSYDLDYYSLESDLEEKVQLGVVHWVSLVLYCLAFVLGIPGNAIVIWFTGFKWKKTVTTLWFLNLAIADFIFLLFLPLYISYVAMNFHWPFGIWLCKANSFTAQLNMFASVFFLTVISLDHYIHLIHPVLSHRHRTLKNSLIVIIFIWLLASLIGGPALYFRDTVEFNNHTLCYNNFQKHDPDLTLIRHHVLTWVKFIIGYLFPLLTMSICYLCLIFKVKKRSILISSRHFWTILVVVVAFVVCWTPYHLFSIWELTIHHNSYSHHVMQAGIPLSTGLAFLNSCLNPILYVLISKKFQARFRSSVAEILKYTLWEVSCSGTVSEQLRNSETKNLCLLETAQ
- ASSAY_NOTES: Radioligand binding assay, huGPR1/HEK293
Ends that are not written are not given here.
I'd appreciate it if you could supply IC50 values for the items below.
One number for each entry, in nM.

| SEQ_STRING | ENDPOINT_UNIT | IC50 |
| --- | --- | --- |
| VQRAGEDPHSFYFPGQFAFS [huC-20] | nM | 3.5 |

Read the next record carefully.
Q: Using human GPR1 (Homo sapiens, UniProt P46091) as the test system, report measured IC50 of IAQAGEDPHGYFLPGQFAFS [mC-20] .
Ans: 5
